- Tested on: TDF;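 note: TDF is a line of transformed human dermal fibroblasts of mesenchymal origin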
- EXPERIMENT NOTES: H1.0 immunofluorescence intensity relative to DMSO (% of DMSO); higher = stronger H1.0 induction, active = 120 or more
- RUN CONDITIONS: concentration: 10 µM; 24 h
The compounds listed here are annotated with their H1.0 immunofluorescence intensity.
Lab note: jot down the number only; don't add units.

Below: 10 compounds and their reported H1.0 immunofluorescence intensity.
>>> recorded_number("CCOC(OCC)P(=O)(O)CCCNCc1ccc(Cl)c(Cl)c1")
98.3
>>> recorded_number("COc1cc(OC)cc(-c2cc3cnc(N)nc3nc2NC(=O)NC(C)(C)C)c1")
101
>>> recorded_number("O=C1CN(/N=C/c2ccc(-c3ccc([N+](=O)[O-])cc3)o2)C([O-])=N1.[Na+]")
97.3
>>> recorded_number("CNCC(O)c1cccc(O)c1.Cl (stereo unspecified) [Phenylephrine hydrochloride]")
97.5
>>> recorded_number("CCCCCCC=CC=CCCCCCCCC(=O)O [(9Z,11E)-Octadecadienoic acid]")
99.8
>>> recorded_number("CCCCCCCCCCCCCCCCOCC(COCC(F)(F)F)OP(=O)([O-])OC.[Li+] (stereo unspecified)")
99.5
>>> recorded_number("NC(CO)C(=O)NNCc1ccc(O)c(O)c1O (stereo unspecified) [Benserazide]")
101
>>> recorded_number("Cc1ccc(Cl)c(Nc2ccccc2C(=O)[O-])c1Cl.[Na+] [sodium 2-(2,6-dichloro-3-methylanilino)benzoate]")
97.9
>>> recorded_number("CCCCCC=CCC=CCCCCCCCCCC(=O)O [Eicosadienoic acid]")
100
>>> recorded_number("Fc1ccc(Cl)cc1-c1nc(Nc2ccncc2)c2nccnc2n1")
98.2

Asked: Look at this compound and give its reported H1.0 immunofluorescence intensity. COc1ccc2c(OC)c3ccoc3nc2c1OC [Skimmianine]
Given back: 99.1

Asked: Look at this compound and give its reported H1.0 immunofluorescence intensity. CN1CCC(=C2c3ccccc3CC(=O)c3sccc32)CC1 [Ketotifen]
Given back: 97.6

Asked: Look at this compound and give its reported H1.0 immunofluorescence intensity. COC1C=COC2(C)Oc3c(C)c(O)c4c(O)c(cc([O-])c4c3C2=O)NC(=O)C(C)=CC=CC(C)C(O)C(C)C(O)C(C)C(OC(C)=O)C1C.[Na+] (stereo unspecified)
Given back: 102

Asked: Look at this compound and give its reported H1.0 immunofluorescence intensity. CNC1C(O)C(NC)C2OC3(O)C(=O)CC(C)OC3OC2C1O (stereo unspecified) [Spectinomycin]
Given back: 97

Asked: Look at this compound and give its reported H1.0 immunofluorescence intensity. CC(C)CN(CC(O)C(Cc1ccccc1)NC(=O)OC1CCOC1)S(=O)(=O)c1ccc(N)cc1 (stereo unspecified) [Amprenavir]
Given back: 100

Asked: Look at this compound and give its reported H1.0 immunofluorescence intensity. N#CC(=Cc1ccc(O)c(O)c1)C(=O)c1ccc(O)c(O)c1 [Tyrphostin AG 538]
Given back: 99.2

Taken from the supplement of paper PMC7156485.
